Target: recombinant human CTLA-4 protein (human) (UniProt P16410)
Sequence (P16410 36-161 limits assumed): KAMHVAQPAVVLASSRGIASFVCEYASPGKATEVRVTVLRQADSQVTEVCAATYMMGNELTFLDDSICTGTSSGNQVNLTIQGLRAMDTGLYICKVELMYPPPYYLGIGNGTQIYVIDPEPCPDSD
Experiment: SPR (Pioneer FE, OneStep), 25 C; 3xFLAG scFv captured by anti-FLAG M2, human CTLA-4 as analyte
Labelling: Kd reported below 0.4 nM becomes 1.0; at or above becomes 0.0.

Please review the entries below; each comes with its answer.
* 78-8 scFv (scFv, part only; not given: Linker, domain order, 3xFLAG tag, V domains shown, not shown: another chain or arm of the molecule; small tags and cut ends) VH: EVQLVESGGGLVQPGGSLRLSCAASGFTFSSYVMHWVRQAPGKGLEWVSAISGSGGGTYYADSVKGRFTISRDNSKNTLYLQMNSLRAEDTAVYYCARGRLIGLALYGEAFDVWGQGTLVTVSS VL: DIQMTQSPSSLSASVGDRVTITCQASKDISNYLNWYQQKPGKAPKLLIYDASNLETGVPSRFSGSGSGTDFTFTISSLQPEDIATYYCQQFNSFPLTFGQGTKVEIK | 0.0
* 78-24D8 scFv (scFv, part only; not given: Linker, domain order, 3xFLAG tag, V domains shown, not shown: another chain or arm of the molecule; small tags and cut ends) VH: EVQLVKSGGGLVQPGGSLRLSCAASGFTFSSYSMHWVRQAPGKGLEWVSGISGSGRSTSYADSVKGRFTISRDNSKNTLYLQMNSLRAEDTAVYYCARDLMAFNLTRTGGFDVWGQGTLVTVSS VL: DIQMTQSPSSLSASVGDRVTITCQASQDISNYLNWYQQKPGKAPKLLIYDASNLETGVPSRFSGSGSGTDFTFTINSLQPEDIATYYCQQGDAWPWTFGQGTKVEIK | 0.0

Confirm or reject: Kd of 78-8D5 scFv (scFv, part only; not given: Linker, domain order, 3xFLAG tag, V domains shown, not shown: another chain or arm of the molecule; small tags and cut ends) VH: EVQLVESGGGLVQPGGSLRLSCAASGFTFSSYVMHWVRQAPGKGLEWVSAISWSGGGTYYADSVKGRFTISRDNSKNTLYLQMNSLRAEDTAVYYCARGRLFGLALYGEAFDVWGQGTLVTVSS VL: DIQMTQSPSSLSASVGDRVTITCQASKDISNYLNWYQQKPGKAPKLLIYDASNLETGVPSRFSGSGSGTDFTFTISSLQPEDIATYYCQQFNSFPLTFGQGTKVEIK lies strictly below 0.4 nM
0.0

Confirm or reject: Kd of 78-8D14 scFv (scFv, part only; not given: Linker, domain order, 3xFLAG tag, V domains shown, not shown: another chain or arm of the molecule; small tags and cut ends) VH: EVQLVESGGGLVQPGGSLRLSCAASGFTFSSYVMHWVRQAPGKGLEWVSAISWSGRGTYYADSVKGRFTISRDNSKNTLYLQMNSLRAEDTAVYYCARGRLFGLARYGEAFDVWGQGTLVTVSS VL: DIQMTQSPSSLSASVGDRVTITCQASRDISNYLNWYQQKPGKAPKLLIYDASNLETGVPSRFSGSGSGTDFTFTISSLQPEDIATYYCQQFNSFPLTFGQGTKVEIK lies strictly below 0.4 nM
1.0

Confirm or reject: Kd of 78-8D2 scFv (scFv, part only; not given: Linker, domain order, 3xFLAG tag, V domains shown, not shown: another chain or arm of the molecule; small tags and cut ends) VH: EVQLVESGGGLVQPGGSLRLSCAASGFTFSSYVMHWVRQAPGKGLEWVSAITWSGRGTYYADSVKGRFTISRDNSKNTLYLQMNSLRAEDTAVYYCARGRLFGLALYGEAFDVWGQGTLVTVSS VL: DIQMTQSPSSLSASVGDRVTITCQASKDISNYLNWYQQKPGKAPKLLIYDASNLETGVPSRFSGSGSGTDFTFIISSLQPEDIATYYCQQFNSFPLTFGQGTKVEIK lies strictly below 0.4 nM
1.0

Confirm or reject: Kd of 78-8D6 scFv (scFv, part only; not given: Linker, domain order, 3xFLAG tag, V domains shown, not shown: another chain or arm of the molecule; small tags and cut ends) VH: EVQLVESGGGLVQPGGSLRLSCVASGFTFSSYVMHWVRQAPGKGLEWVSAISWSGGGTYYADSVKGRFTISRDNSKNTLYLQMNSLRAEDTAVYYCARGRLFGLALYGEAFDVWGQGTLVTVSS VL: DIQMTQSPSSLSASVGDRVTITCQASKDISNYLNWYQQKPGKAPKLLIYNASNLETGVPSRFSGSGSGTDFTFTISSLQPEDIATYYCQQFNSFPLTFGQGTKVEIK lies strictly below 0.4 nM
1.0
